# System: SNB-19 CNS
# protocolNotes: NCI-60 one-dose screen, 48 h
# conditionDetails: 10 µM unless noted
This is part of a sample that, as a whole, favours compounds with a hit. Of some 83,000 tested, about 20% had one in any assay. Calls of active or inactive are those of the source. The calls were made as follows: active = growth percent below 10; inactive = the rest.
Field 'call' accepts active, inactive

A selection of reference data follows.
C/C(=C\CCc1ccoc1)CC/C=C(\C)CCCN1CCOCC1 = inactive
COc1ccc(/C=C2/SC(=Nc3c(C)nn(-c4ccccc4)c3N)NC2=O)cc1 = inactive
Nc1nc(Nc2ccccc2SSc2ccccc2Nc2nc(N)nc(-c3cccc(Cl)c3)n2)nc(-c2cccc(Cl)c2)n1 = inactive
COc1cc(/C=C/c2cc(/C=C/c3ccc(O)c(OC)c3)n(C(=O)Cc3ccccc3)n2)ccc1O = active

Query compound follows.
Inquiry: Test call, this compound: `O=C(Oc1cccc2ccccc12)c1ccccc1C(=O)c1ccccc1`
Reply text: inactive
